- System Tested: T1, ZFP SBS#272 (synthetic)
- T1 chain: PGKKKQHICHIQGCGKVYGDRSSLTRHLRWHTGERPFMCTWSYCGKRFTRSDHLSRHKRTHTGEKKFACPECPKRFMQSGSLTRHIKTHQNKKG
- Measurement Protocol: EMSA
- Test Context: tags: MBP fusion
Observation Type: Kd (nM)

>  <Binder>
GCAGGGGCC (dsDNA) DNA 1: GCAGGGGCC DNA 2: GGCCCCTGC

>  <Number>
20

$$$$

Attribution: patent US20030068675
